method-description: qHTS assay to identify small molecule antagonists of the retinoic acid receptor (RAR) signaling pathway (AID 1159552; also: nearly all actives have a fitted effect of over 50% in size)
condition-label: C3RL4 RARE luciferase reporter, retinol-stimulated, 6 h; series mostly up to 92.4 µM
Records with an inconclusive call do not appear. Active and inactive are the calls of the source. Calls follow the shape of the dose curve; as a rule, active = well fitted inhibition curve with a large enough effect in the repeat runs; inconclusive = weak or mixed curves, or effect the other way; inactive = no such curve, though single readings can be large or run the other way.
Lab note: assign the record to one of active, inactive

// known answers, use as guide
Nc1ccc(Cl)c([N+](=O)[O-])c1    inactive
CC/C(=C(/c1ccc(O)cc1)c1ccc(OCCN(C)C)cc1)c1ccccc1    active
c1ccc(-c2ccc(C(c3ccccc3)n3ccnc3)cc2)cc1 (stereo unspecified)    inactive
Cc1cc(F)ccc1-c1cc(N2CC[C@@H](O)[C@H]2CO)ncc1N(C)C(=O)C(C)(C)c1cc(C(F)(F)F)cc(C(F)(F)F)c1    active
CC(O)(c1ccc(Cl)cc1)c1ccc(Cl)cc1    active
Oc1ccc2c(c1)CCC2    inactive

// query // return assay outcome for `O=C1Cc2ccccc2C1`
// result inactive

// query For `Cc1c[nH]c(=O)[nH]c1=O` , which call appears in the assay record?
// result inactive

// query Given `c1ccc2cc3c4ccccc4c4ccccc4c3cc2c1` , state the outcome it received in this test.
// result inactive

// query Recorded test call requested for `CC/C=C\C/C=C\C/C=C\CCCCCCCC(=O)OC`
// result inactive

// query How was `CC(=O)[C@]1(O)Cc2c(O)c3c(c(O)c2[C@@H](O[C@H]2C[C@H](N)[C@H](O)[C@H](C)O2)C1)C(=O)c1ccccc1C3=O` classified in this test?
// result active
